Each recorded value in this set is attributed to ChEMBL document CHEMBL1138164.

# TEST: Aqueous solubility of compound
# Assay type: physicochemical
# TEST_SETTINGS: water (aqueous)
PROPERTY_NAME: solubility

SUBSTANCE_SMILES | solubility
NCc1ccc2[nH]c3c4c(c5c(c3c2c1)CNC5=O)CCC4 | 100 µg/mL

In the following, a different molecule is considered.
For the molecule `O=C1NCc2c1c1c(c3[nH]c4ccccc4c23)CCC1` , what solubility is on record? < 1 µg/mL
